Test system: Escherichia coli TOP10;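 further: peptides expressed intracellularly from a pBAD plasmid library in pooled LB shake-flask culture, induced with 0.3% L-arabinose, DNA abundance read by NGS, three biological replicates, DESeq2 with apeglm shrinkage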
Assay: shrunken log2 fold change of peptide-encoding DNA abundance (4.5 h post-induction vs induction); higher = less antimicrobial activity (less host growth inhibition)
Settings: time post-induction: 4.5 h; library: site-saturation at positions 5, 18, 19, 20
Please respond with reported shrunken log2 fold change for every item in the list.

>>> reported_value("RRIRVRPPRLPRPRPRPTSHPRP")
-0.139
>>> reported_value("RRIRDRPPRLPRPRPRPGSMPRP")
-0.403
>>> reported_value("RRIRDRPPRLPRPRPRPQMKPRP")
-0.166

Record shrunken log2 fold change per entry; entries follow.
1. RRIRARPPRLPRPRPRPVHAPRP
2. RRIRHRPPRLPRPRPRPSCKPRP
3. RRIRLRPPRLPRPRPRPRAYPRP

# output
0.768
-0.609
0.0155

Record shrunken log2 fold change per entry; entries follow.
1. RRIRARPPRLPRPRPRPYYLPRP
2. RRIRRRPPRLPRPRPRPTWAPRP
3. RRIRPRPPRLPRPRPRPNIQPRP
4. RRIRCRPPRLPRPRPRPQCRPRP
5. RRIRDRPPRLPRPRPRPSANPRP

# output
[-0.539, 0.7, -0.404, -0.421, 0.119]

Record shrunken log2 fold change per entry; entries follow.
1. RRIRSRPPRLPRPRPRPVYYPRP
2. RRIRKRPPRLPRPRPRPHMKPRP
3. RRIRHRPPRLPRPRPRPDYMPRP
4. RRIRLRPPRLPRPRPRPLYHPRP

# output
1. -0.71
2. -0.0471
3. -0.336
4. -0.648
